Each entry below lists one item and its recorded GI50 value.
Tested on: NSCLC cell lines
run-description: NCI-60 SRB growth inhibition, subpanel
Format: cell-based, human
setup-conditions: Homo sapiens, read-out: GI50 MG-MID
The response must be a number in µM with no trailing unit.

Task: Name the recorded GI50 of the molecule listed here: "Cc1ccc(CNc2cccc(C(=O)/C=C/c3cccnc3)c2)cc1"
Result: 13.7

Task: Name the recorded GI50 of the molecule listed here: "COc1ccc(CNc2cccc(C(=O)/C=C/c3ccc(NC(C)=O)cc3)c2)cc1OC"
Result: 8.91

Task: Name the recorded GI50 of the molecule listed here: "O=C(/C=C/c1cccnc1)c1cccc(NCc2ccc(CO)cc2)c1"
Result: 13.6

Task: Name the recorded GI50 of the molecule listed here: "CC(=O)Nc1ccc(CNc2cccc(C(=O)/C=C/c3cccnc3)c2)cc1"
Result: 7.24

Task: Name the recorded GI50 of the molecule listed here: "CC(=O)Nc1ccc(/C=C/C(=O)c2cccc(NCc3csc4ccccc34)c2)cc1"
Result: 11.2
